- assay-remarks: Pharmacokinetic analysis of ladostigil and metabolites in Alzheimer's disease patients
- run-parameters: human, in vivo, 100 mg, Cmax (T), Patient 2; termination analysis Week 9; after ladostigil tartrate 100 mg twice daily
Structures can show the parent of a compound that is named as a salt.
Examples of molecules with documented Cmax follow.
attribute-measured: Cmax (µM)

• CNC(=O)Oc1ccc2c(c1)[C@H](N)CC2 [R-MCAI, hydrochloride] = 0.2
• C#CCN[C@@H]1CCc2ccc(OC(=O)NC)cc21 [R-MCPAI, hydrochloride] = 1
• C#CCN[C@@H]1CCc2ccc(OC(=O)N(CC)CO)cc21 = 3.9

====

- assay-remarks: clinical
- run-parameters: human, in vivo, 100 mg, AUC (M), Patient 5; maintenance analysis Week 4; after ladostigil tartrate 100 mg twice daily
attribute-measured: AUC (ng·h/mL)

• C#CCN[C@@H]1CCc2ccc(OC(=O)N(C)CC)cc21 [ladostigil] = 436

====

- assay-remarks: Pharmacokinetic analysis of ladostigil and metabolites in Alzheimer's disease patients
- run-parameters: human, in vivo, 100 mg, AUC (T), Patient 6; termination analysis Week 9; after ladostigil tartrate 100 mg twice daily
Where a name gives a salt, the structure may show the parent alone.
AUC(0-t) by entry:
attribute-measured: AUC(0-t) (µg·h/mL)

* C#CCN[C@@H]1CCc2ccc(OC(=O)NC)cc21 [R-MCPAI, hydrochloride] | 0.947
* C#CCN[C@@H]1CCc2ccc(OC(=O)N(CC)CO)cc21 | 2.4
* CNC(=O)Oc1ccc2c(c1)[C@H](N)CC2 [R-MCAI, hydrochloride] | 0.964

====

- assay-remarks: clinical
- run-parameters: human, in vivo, 100 mg, AUC (T), Patient 1; termination analysis Week 9; after ladostigil tartrate 100 mg twice daily
attribute-measured: AUC(0-t) (ng·h/mL)

- C#CCN[C@@H]1CCc2ccc(OC(=O)N(C)CC)cc21: 246

====

- assay-remarks: Pharmacokinetic analysis of ladostigil and metabolites in Alzheimer's disease patients
- run-parameters: human, in vivo, 100 mg, Cmax (T), Patient 6; termination analysis Week 9; after ladostigil tartrate 100 mg twice daily
Counter-ions that a name gives are not always drawn.
Recorded measurements of Cmax, one per entry
attribute-measured: Cmax

• C#CCN[C@@H]1CCc2ccc(OC(=O)N(CC)CO)cc21 = 3200 nM
• C#CCN[C@@H]1CCc2ccc(OC(=O)NC)cc21 [R-MCPAI, hydrochloride] = 1300 nM
• CNC(=O)Oc1ccc2c(c1)[C@H](N)CC2 [R-MCAI, hydrochloride] = 300 nM

====

- assay-remarks: clinical
- run-parameters: human, in vivo, 100 mg, AUC (M), Patient 4; maintenance analysis Week 4; after ladostigil tartrate 100 mg twice daily
attribute-measured: AUC (ng·h/mL)

- C#CCN[C@@H]1CCc2ccc(OC(=O)N(C)CC)cc21: 927

====

- assay-remarks: clinical
- run-parameters: human, in vivo, 100 mg, Cmax (T), Patient 1; termination analysis Week 9; after ladostigil tartrate 100 mg twice daily
attribute-measured: Cmax (µM)

- C#CCN[C@@H]1CCc2ccc(OC(=O)N(C)CC)cc21: 0.7

====

# Cmax values compiled below
- assay-remarks: Pharmacokinetic analysis of ladostigil and metabolites in Alzheimer's disease patients
- run-parameters: human, in vivo, 100 mg, Cmax (M), Patient 2; maintenance analysis Week 4; after ladostigil tartrate 100 mg twice daily
Where a name gives a salt, the structure may show the parent alone.
attribute-measured: Cmax (M)

- CNC(=O)Oc1ccc2c(c1)[C@H](N)CC2 [R-MCAI, hydrochloride]: 2e-07
- C#CCN[C@@H]1CCc2ccc(OC(=O)NC)cc21 [R-MCPAI, hydrochloride]: 3e-07
- C#CCN[C@@H]1CCc2ccc(OC(=O)N(CC)CO)cc21 [R-HCPAI]: 1.5e-06

====

- assay-remarks: clinical
- run-parameters: human, in vivo, 100 mg, AUC (T), Patient 2; termination analysis Week 9; after ladostigil tartrate 100 mg twice daily
attribute-measured: AUC(0-t)

* C#CCN[C@@H]1CCc2ccc(OC(=O)N(C)CC)cc21 | 2300 ng·h/mL
